- System: RSV Long strain
- PROTOCOL_NOTES: RSV CPE reduction assay
- Format: cell-based
- ASSAY_SETUP: human respiratory syncytial virus, 144 h; CPE assay; HEp-2 cells infected with RSV Long strain, m.o.i. 0.01; 6 days; CCK-8 readout; read-out: EC50
RECORDED_ENDPOINT: EC50

Solved cases below.
compound="CC(C)OC(=O)[C@H](C)NP(=O)(N[C@@H](C)C(=O)OC(C)C)OC[C@@]1(N=[N+]=[N-])O[C@@H](n2ccc(=O)[nH]c2=O)[C@H](F)[C@@H]1O [Compound 40]" assayed_system="RSV Long strain" recorded_endpoint=EC50 recorded_result="> 100 µM"
compound="C[C@]1(F)[C@H](n2ccc(N)nc2=O)O[C@@](CO)(N=[N+]=[N-])[C@H]1O [Compound 38]" assayed_system="RSV Long strain" recorded_endpoint=EC50 recorded_result="> 100 µM"

Below: the item to evaluate.
Item: C[C@H](NP(=O)(OC[C@@]1(N=[N+]=[N-])O[C@@H](n2cnc3c(=O)[nH]c(N)nc32)[C@H](O)[C@@H]1O)Oc1ccccc1)C(=O)OC1CCCCC1 (stereo partly drawn) [Compound 29] Test system: RSV Long strain Read-out: EC50 Value: ?
< 1 µM

====

- Tested on: RSV A2
- PROTOCOL_NOTES: RSV RT-PCR based assay
- Type: cell-based
- ASSAY_SETUP: human respiratory syncytial virus; RT-PCR assay; HEp-2 cells; 24 hour compound pre-incubation; RSV A2 at MOI 0.1; 4 days after infection; viral load; read-out: EC50
RECORDED_ENDPOINT: EC50

Solved cases below.
compound="CC(C)OC(=O)[C@H](C)NP(=O)(OC[C@@]1(N=[N+]=[N-])O[C@@H](n2ccc(=O)[nH]c2=O)[C@@H](F)[C@@H]1O)Oc1ccccc1 (stereo partly drawn)" recorded_endpoint=EC50 recorded_result="> 100 µM"
compound="CC(C)OC(=O)[C@H](C)NP(=O)(OC[C@@]1(N=[N+]=[N-])O[C@@H](n2ccc(=O)[nH]c2=O)[C@@H](C)[C@@H]1O)Oc1ccccc1 (stereo partly drawn)" recorded_endpoint=EC50 recorded_result="> 100 µM"
compound=[N-]=[N+]=N[C@]1(CO)O[C@@H](n2cnc3c(=O)[nH]c(N)nc32)[C@H](O)[C@@H]1O recorded_endpoint=EC50 recorded_result="< 1 µM"
compound="CC(C)OC(=O)[C@H](C)NP(=O)(OC[C@@]1(N=[N+]=[N-])O[C@@H](n2ccc(=O)[nH]c2=O)[C@H](O)[C@@H]1O)Oc1ccccc1 (stereo partly drawn)" recorded_endpoint=EC50 recorded_result="< 1 µM"
compound=[N-]=[N+]=N[C@]1(CO)O[C@@H](n2cnc3c(N)ncnc32)[C@H](F)[C@@H]1O recorded_endpoint=EC50 recorded_result="> 100 µM"

Below: the item to evaluate.
Item: [N-]=[N+]=N[C@]1(CO)O[C@@H](n2cnc3c(=O)[nH]c(N)nc32)[C@H](F)[C@@H]1O Test system: RSV A2 Read-out: EC50 Value: ?
< 1 µM

====

- System: RSV A2
- PROTOCOL_NOTES: RSV RT-PCR based assay
- Type: cell-based
- ASSAY_SETUP: human respiratory syncytial virus; RT-PCR assay; HEp-2 cells; 24 hour compound pre-incubation; RSV A2 at MOI 0.1; 4 days after infection; viral load; read-out: EC50
Below: a set of entries, each annotated with reported EC50.

Solved cases below.
compound=CC(C)OC(=O)[C@H](C)NP(=O)(N[C@@H](C)C(=O)OC(C)C)OC[C@@]1(N=[N+]=[N-])O[C@@H](n2ccc(=O)[nH]c2=O)[C@H](O)[C@@H]1O recorded_result="> 100 µM"
compound=[N-]=[N+]=N[C@]1(CO)O[C@@H](n2ccc(=O)[nH]c2=O)C(F)(F)[C@@H]1O recorded_result="> 100 µM"
compound=[N-]=[N+]=N[C@]1(CO)O[C@@H](n2cnc3c(=O)[nH]c(N)nc32)C(F)(F)[C@@H]1O recorded_result="> 100 µM"
compound=CC(C)OC(=O)[C@H](C)NP(=O)(N[C@@H](C)C(=O)OC(C)C)OC[C@@]1(N=[N+]=[N-])O[C@@H](n2ccc(N)nc2=O)C(F)(F)[C@@H]1O recorded_result="< 1 µM"
compound=[N-]=[N+]=N[C@]1(CO)O[C@@H](n2ccc(N)nc2=O)[C@@H](O)[C@@H]1O recorded_result="< 1 µM"

Below: the item to evaluate.
Look at this compound and give its reported EC50. CC(C)OC(=O)[C@H](C)NP(=O)(OC[C@@]1(N=[N+]=[N-])O[C@@H](n2ccc(=O)[nH]c2=O)[C@H](F)[C@@H]1O)Oc1ccccc1 (stereo partly drawn)
> 100 µM
